tested.on: Proto-oncogene tyrosine-protein kinase Src (Mus musculus)
Sequence (P05480 2-535 limits assumed): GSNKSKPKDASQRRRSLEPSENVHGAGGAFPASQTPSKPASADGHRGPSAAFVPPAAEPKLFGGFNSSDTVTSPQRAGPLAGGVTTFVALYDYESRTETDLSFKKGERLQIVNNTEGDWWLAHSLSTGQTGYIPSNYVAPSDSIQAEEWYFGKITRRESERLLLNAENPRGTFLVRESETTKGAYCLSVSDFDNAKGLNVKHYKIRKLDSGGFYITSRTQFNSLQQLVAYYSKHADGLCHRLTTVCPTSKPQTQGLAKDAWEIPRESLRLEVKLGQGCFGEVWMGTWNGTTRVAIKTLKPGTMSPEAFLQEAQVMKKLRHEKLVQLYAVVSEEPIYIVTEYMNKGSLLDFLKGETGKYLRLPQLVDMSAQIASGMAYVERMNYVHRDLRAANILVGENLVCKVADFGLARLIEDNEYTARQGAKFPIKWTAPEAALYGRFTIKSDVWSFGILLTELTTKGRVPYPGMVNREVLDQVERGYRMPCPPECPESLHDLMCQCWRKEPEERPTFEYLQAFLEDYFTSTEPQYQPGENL
measurement.notes: Inhibition of Src signaling pathway in mouse BV2 cells assessed as suppression of LPS-induced NO release at […] preincubated for 1 hr followed by LPS addition measured after 24 hrs relative to control by Griess assay
Assay type: cell-based
condition.set: BV-2
Listing of recorded inhibition by entry.
readout.label: inhibition

chemical.structure	readout.label	experimental.value
CC(C)CC(=O)c1c(O)cc(O)cc1OC[C@H](O)CNC(C)C	inhibition	< 50%
COc1cc(OC)c(CNCC(=O)O)c(OC)c1	inhibition	< 50%
COc1cc(OC)c(C(=O)CC(C)C)c(OC[C@H](O)CNC(C)(C)C)c1	inhibition	< 50%

----------
tested.on: Proto-oncogene tyrosine-protein kinase Src (Mus musculus)
measurement.notes: Inhibition of Src in mouse BV2 cells assessed as suppression of LPS-induced NO release preincubated for 1 hr followed by LPS addition measured after 24 hrs by Griess assay
pIC50: −log10 of the molar value.
readout.label: pIC50

molecule	readout.label	experimental.value
COc1cc(OC)c(CN[C@@H](CCC(=O)O)C(=O)O)c(OC)c1	pIC50	5.08
CC(C)NC(=O)c1c(O)cc(O)cc1O	pIC50	4.03
COc1cc(OC)c(C(=O)CC(C)C)c(OCC(O)CNC(C)(C)C)c1 (configuration not stated)	pIC50	4.12
COc1ccc(C(=O)CC(C)C)c(OC[C@H](O)CNC(C)C)c1	pIC50	4.39
CCN1CCN(CC(=O)c2c(OC)cc(OC)cc2OC)CC1	pIC50	4.64
COc1ccc(C(=O)CC(C)C)c(OC[C@@H](O)CNC(C)C)c1	pIC50	4.59
CC(C)CC(=O)c1c(O)cc(O)cc1OCC(O)CNC(C)C (configuration not stated)	pIC50	4.13
CCCCNC(=O)c1c(O)cc(O)cc1O	pIC50	4.43
COc1cc(OC)c(CN[C@@H](C)C(=O)O)c(OC)c1	pIC50	4.41
CC(C)CC(=O)c1ccc(O)cc1	pIC50	4.04
CC(C)CC(=O)c1c(O)cc(O)cc1OC[C@H](O)CNC(C)(C)C	pIC50	4.43
CC(C)CC(=O)c1c(O)cc(O)cc1OCc1c(-c2ccccc2)no[n+]1[O-]	pIC50	5.07

----------
measurement.notes: Toxicity in ICR mouse assessed as mortality administered through oral gavage
Format: organism-based
condition.set: in vivo

chemical.structure	LD50
COc1cc(O)cc(O)c1C(=O)CC(C)C	2000 mg/kg
COc1cc(OC)c(CN[C@@H](CO)C(=O)O)c(OC)c1	> 5000 mg/kg

----------
tested.on: Proto-oncogene tyrosine-protein kinase Src (Mus musculus)
measurement.notes: Inhibition of Src in mouse BV2 cells assessed as suppression of LPS-induced NO release preincubated for 1 hr followed by LPS addition measured after 24 hrs by Griess assay
IC50 for assorted molecules

molecule	tested.on	IC50 [µM]
COc1ccc(C(=O)CC(C)C)c(O)c1	Proto-oncogene tyrosine-protein kinase Src (Mus musculus)	113
COc1cc(OC)c(C(=O)CN2CCN(C)CC2)c(OC)c1	Proto-oncogene tyrosine-protein kinase Src (Mus musculus)	95.3
COc1cc(OC)c(C(=O)CC(C)C)c(OC[C@@H](O)CNC(C)C)c1	Proto-oncogene tyrosine-protein kinase Src (Mus musculus)	138
COc1cc(OC)c(C(=O)CC(C)C)c(OC)c1	Proto-oncogene tyrosine-protein kinase Src (Mus musculus)	11.1
COc1cc(OC)c(C(=O)CC(C)C)c(OCC(O)CNC(C)C)c1 (configuration not stated)	Proto-oncogene tyrosine-protein kinase Src (Mus musculus)	84.8
COc1cc(OC)c(C(=O)CC(C)C)c(OC[C@@H](O)CNC(C)(C)C)c1	Proto-oncogene tyrosine-protein kinase Src (Mus musculus)	11.2
COc1cc(OC)c(CN[C@@H](CO)C(=O)O)c(OC)c1	Proto-oncogene tyrosine-protein kinase Src (Mus musculus)	6.6

The measurements presented in this section are drawn from ChEMBL document CHEMBL3860061.
